These entries and their values trace back to patent US6114390A.

- assayed_target: human Y4 receptor (Homo sapiens)
- Sequence (P50391 whole entry): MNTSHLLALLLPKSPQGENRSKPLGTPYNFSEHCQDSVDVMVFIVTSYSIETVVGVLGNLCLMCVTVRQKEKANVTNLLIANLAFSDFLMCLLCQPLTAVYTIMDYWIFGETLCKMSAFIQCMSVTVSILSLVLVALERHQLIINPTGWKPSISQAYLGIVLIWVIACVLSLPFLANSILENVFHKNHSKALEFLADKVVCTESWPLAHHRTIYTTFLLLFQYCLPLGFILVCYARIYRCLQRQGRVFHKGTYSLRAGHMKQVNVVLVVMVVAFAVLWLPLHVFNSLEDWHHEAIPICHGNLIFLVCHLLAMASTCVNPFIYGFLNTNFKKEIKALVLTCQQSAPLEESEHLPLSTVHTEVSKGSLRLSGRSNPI
readout_label: pIC50
Reminder that pIC50 is minus the log10 of a molar concentration.

Recorded pIC50 for N=C(N)NCCC[C@@H](NC(=O)C(c1ccccc1)c1ccccc1)C(=O)NCc1ccc(CNC(N)=O)cc1 [Compound C] , please?
4.91

* * *

- assayed_target: human Y1 -receptor (Homo sapiens, UniProt P25929)
- Construct: endoge- nously expressing Y1 and Y2 receptors; endogenous in cells; host or cells: SK-N-MC (neuroblastoma) cells
- Sequence (P25929 whole entry): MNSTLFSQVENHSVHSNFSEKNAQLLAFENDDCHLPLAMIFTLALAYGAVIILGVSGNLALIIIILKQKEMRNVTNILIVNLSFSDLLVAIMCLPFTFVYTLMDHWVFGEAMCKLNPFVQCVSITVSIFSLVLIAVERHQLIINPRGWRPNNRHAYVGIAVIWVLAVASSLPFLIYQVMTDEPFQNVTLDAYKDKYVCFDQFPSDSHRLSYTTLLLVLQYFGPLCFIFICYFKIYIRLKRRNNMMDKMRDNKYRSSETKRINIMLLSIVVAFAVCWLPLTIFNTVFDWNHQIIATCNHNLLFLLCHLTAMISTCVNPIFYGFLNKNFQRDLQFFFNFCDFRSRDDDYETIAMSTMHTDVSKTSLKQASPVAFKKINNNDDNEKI
- assay_overview: Receptor binding to SK-N-MC cells ([125I]-Bolton-Hunter-NPY displacement)
- experimental_context: Table 1
- Protocol: Incubation is ended by centrifuging (10 minutes at 3000×gand […].). After washing once with PBS, the radioactivity of the pellet is measured in a gamma counter. […] The proportion of non-specific binding is defined as that radioactivity which is bound in the presence of 1 μM NPY. The IC50 values of the unlabelled test substances are determined graphically.
Please respond with reported IC50 for every item in the list.
Could you kindly put the unit after your number?

Recorded IC50 for N=C(N)NCCC[C@@H](NC(=O)CC(c1ccccc1)c1ccccc1)C(=O)NCc1ccc(CNC(N)=O)cc1 , please?
3.45 nM

Recorded IC50 for CN(C)C(=O)NCc1ccc(CNC(=O)[C@@H](CCCNC(=N)N)NC(=O)C(c2ccccc2)c2ccccc2)cc1 , please?
1.5 nM

Recorded IC50 for N=C(N)NCCC[C@@H](NC(=O)Nc1ccc(Cl)c(Cl)c1)C(=O)NCc1ccc(CNC(N)=O)cc1 , please?
1.8 nM
